Kd values for the compounds below.
TEST_TARGET: BM3 A82F/F87V double mutant (DM) heme domain (Priestia megaterium, UniProt P14779, A83F/F88V)
Construct: The BM3 heme domain proteins (WT and the DM A82F/F87V variant) used in this study were expressed as described in our previous studies; made in house; host or cells: E. coli BL21 (DE3)
Sequence (P14779 2-472 A83F/F88V): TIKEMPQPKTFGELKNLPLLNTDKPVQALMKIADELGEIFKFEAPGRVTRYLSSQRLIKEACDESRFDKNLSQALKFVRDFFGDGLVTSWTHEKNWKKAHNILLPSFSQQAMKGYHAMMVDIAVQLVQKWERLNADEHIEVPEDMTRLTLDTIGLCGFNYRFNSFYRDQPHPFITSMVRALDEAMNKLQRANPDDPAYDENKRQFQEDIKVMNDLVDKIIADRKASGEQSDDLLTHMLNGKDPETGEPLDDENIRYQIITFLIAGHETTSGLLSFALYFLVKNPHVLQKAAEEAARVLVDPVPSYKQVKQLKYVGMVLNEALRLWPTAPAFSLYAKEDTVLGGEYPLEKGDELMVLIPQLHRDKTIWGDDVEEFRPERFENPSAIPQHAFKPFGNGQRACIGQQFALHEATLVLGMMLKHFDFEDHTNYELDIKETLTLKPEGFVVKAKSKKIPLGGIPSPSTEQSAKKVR
ASSAY_DETAILS: biochemical
Format: binding, Bacillus megaterium
CONDITION_DESCRIPTION: Kd, DM (A82F/F87V) BM3 heme domain; 25 mM KPi pH 7, 30 °C
Respond with a number, then the unit of measure.

Recorded results for 5 compounds are shown here.
C[C@@H](c1ncncc1F)[C@](O)(Cn1cncn1)c1ccc(F)cc1F : 1900 nM
OC(Cn1cncn1)(Cn1cncn1)c1ccc(F)cc1F : 2910 nM
Clc1ccc(C(Cn2ccnc2)OCc2ccsc2Cl)c(Cl)c1 (stereo not shown) : 390 nM
C[C@@H](c1nc(-c2ccc(C#N)cc2)cs1)[C@](O)(Cn1cncn1)c1ccc(F)cc1F : 340 nM
Clc1ccc(C(Cn2ccnc2)OCc2csc3c(Cl)cccc23)c(Cl)c1 (stereo not shown) [Sertaconazole nitrate] : 460 nM

// recorded Kd for CCC(C)n1ncn(-c2ccc(N3CCN(c4ccc(OCC5COC(Cn6cncn6)(c6ccc(Cl)cc6Cl)O5)cc4)CC3)cc2)c1=O (stereo not shown) : 50 nM

// recorded Kd for `CC[C@@H]([C@H](C)O)n1ncn(-c2ccc(N3CCN(c4ccc(OC[C@@H]5CO[C@@](Cn6cncn6)(c6ccc(F)cc6F)C5)cc4)CC3)cc2)c1=O` : 2690 nM

----------
TEST_TARGET: BM3 A82F/F87V double mutant (DM) heme domain (Priestia megaterium, UniProt P14779, A83F/F88V)
Construct: The BM3 heme domain proteins (WT and the DM A82F/F87V variant) used in this study were expressed as described in our previous studies; made in house; host or cells: E. coli BL21 (DE3)
ASSAY_DETAILS: biochemical
Format: binding, Bacillus megaterium
CONDITION_DESCRIPTION: Kd, DM (A82F/F87V) BM3 heme domain; 25 mM KPi pH 7, 30 °C
Lab note - cut at 300 nM for Kd: Yes if strictly below, No if not.

Check out these entries, answers already filled in.
Clc1ccc(C(Cn2ccnc2)OCc2ccc(Sc3ccccc3)cc2)c(Cl)c1 (centres unmarked) [Fenticonazole nitrate] : No
CC(C)(C)C(=O)C(Oc1ccc(Cl)cc1)n1ccnc1 (centres unmarked) : No
Clc1ccc(C(Cn2ccnc2)OCc2c(Cl)cccc2Cl)c(Cl)c1 (centres unmarked) [Isoconazole nitrate] : No
c1ccc(-c2ccc(C(c3ccccc3)n3ccnc3)cc2)cc1 (centres unmarked) : Yes

Proceed to the following item.
Please determine if Clc1ccc(CCC(Cn2ccnc2)Sc2c(Cl)cccc2Cl)cc1 (centres unmarked) [Butoconazole nitrate] is below 300 nM in terms of Kd.
No

----------
TEST_TARGET: BM3 A82F/F87V double mutant (DM) heme domain (Priestia megaterium, UniProt P14779, A83F/F88V)
Construct: The BM3 heme domain proteins (WT and the DM A82F/F87V variant) used in this study were expressed as described in our previous studies; made in house; host or cells: E. coli BL21 (DE3)
ASSAY_DETAILS: biochemical
Assay type: binding, Bacillus megaterium
CONDITION_DESCRIPTION: DM BM3 heme domain; maximal peak-minus-trough value divided by P450 Soret peak value
Delta Abs/Soret Peak values for the compounds below.
Keep the answer to the number alone.

Recorded results for 6 compounds are shown here.
C[C@@H](c1nc(-c2ccc(C#N)cc2)cs1)[C@](O)(Cn1cncn1)c1ccc(F)cc1F [Ravuconazole] : 0.21
CC(C)(C)C(=O)C(Oc1ccc(Cl)cc1)n1ccnc1 (stereo not shown) [Climbazole] : 0.50
CC[C@@H]([C@H](C)O)n1ncn(-c2ccc(N3CCN(c4ccc(OC[C@@H]5CO[C@@](Cn6cncn6)(c6ccc(F)cc6F)C5)cc4)CC3)cc2)c1=O [Posaconazole] : 0.41
CCC(C)n1ncn(-c2ccc(N3CCN(c4ccc(OCC5COC(Cn6cncn6)(c6ccc(Cl)cc6Cl)O5)cc4)CC3)cc2)c1=O (stereo not shown) [Itraconazole] : 0.16
Clc1ccc(C(Cn2ccnc2)OCc2csc3c(Cl)cccc23)c(Cl)c1 (stereo not shown) [Sertaconazole nitrate] : 0.45
OC(Cn1cncn1)(Cn1cncn1)c1ccc(F)cc1F [Fluconazole] : 0.19

// recorded Delta Abs/Soret Peak for Clc1ccc(C(Cn2ccnc2)OCc2ccc(Sc3ccccc3)cc2)c(Cl)c1 (stereo not shown) [Fenticonazole nitrate] : 0.44

----------
TEST_TARGET: BM3 A82F/F87V double mutant (DM) heme domain (Priestia megaterium, UniProt P14779, A83F/F88V)
Construct: The BM3 heme domain proteins (WT and the DM A82F/F87V variant) used in this study were expressed as described in our previous studies; made in house; host or cells: E. coli BL21 (DE3)
ASSAY_DETAILS: biochemical
Format: binding, Bacillus megaterium
CONDITION_DESCRIPTION: DM BM3 heme domain
QUANTITY_NAME: Delta Abs Trough (wavelength minimum of absorbance difference spectrum) (nm)
Give a bare numeral; the unit nm is implied.

Recorded results for 6 compounds are shown here.
CC[C@@H]([C@H](C)O)n1ncn(-c2ccc(N3CCN(c4ccc(OC[C@@H]5CO[C@@](Cn6cncn6)(c6ccc(F)cc6F)C5)cc4)CC3)cc2)c1=O : 395
Clc1ccc(CCC(Cn2ccnc2)Sc2c(Cl)cccc2Cl)cc1 (stereo not drawn) [Butoconazole nitrate] : 413
Clc1ccc(C(Cn2ccnc2)OCc2c(Cl)cccc2Cl)c(Cl)c1 (stereo not drawn) [Isoconazole nitrate] : 415
C[C@@H](c1nc(-c2ccc(C#N)cc2)cs1)[C@](O)(Cn1cncn1)c1ccc(F)cc1F : 413
Clc1ccc(C(Cn2ccnc2)OCc2ccc(Sc3ccccc3)cc2)c(Cl)c1 (stereo not drawn) [Fenticonazole nitrate] : 414
CCC(C)n1ncn(-c2ccc(N3CCN(c4ccc(OCC5COC(Cn6cncn6)(c6ccc(Cl)cc6Cl)O5)cc4)CC3)cc2)c1=O (stereo not drawn) : 414

We now examine a further compound.
// recorded Delta Abs Trough (wavelength minimum of absorbance difference spectrum) for `OC(Cn1cncn1)(Cn1cncn1)c1ccc(F)cc1F` : 414

----------
TEST_TARGET: WT BM3 heme domain (Priestia megaterium, UniProt P14779)
Construct: The BM3 heme domain proteins (WT and the DM A82F/F87V variant) used in this study were expressed as described in our previous studies; made in house; host or cells: E. coli BL21 (DE3)
Sequence (P14779 2-472): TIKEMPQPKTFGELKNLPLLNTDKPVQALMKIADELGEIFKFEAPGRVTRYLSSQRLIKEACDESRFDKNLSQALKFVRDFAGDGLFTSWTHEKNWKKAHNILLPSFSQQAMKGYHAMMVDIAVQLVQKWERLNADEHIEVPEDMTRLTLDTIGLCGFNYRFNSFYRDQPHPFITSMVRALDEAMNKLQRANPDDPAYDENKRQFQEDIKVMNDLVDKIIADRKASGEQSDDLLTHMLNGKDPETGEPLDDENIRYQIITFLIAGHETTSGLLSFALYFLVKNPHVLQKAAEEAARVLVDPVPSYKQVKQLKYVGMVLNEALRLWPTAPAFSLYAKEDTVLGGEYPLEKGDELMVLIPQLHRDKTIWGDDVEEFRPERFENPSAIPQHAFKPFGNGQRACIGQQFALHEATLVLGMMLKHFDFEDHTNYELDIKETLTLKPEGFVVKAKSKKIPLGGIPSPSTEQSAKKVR
ASSAY_DETAILS: biochemical
Format: binding, Bacillus megaterium
CONDITION_DESCRIPTION: WT BM3 heme domain
Delta Abs Trough (wavelength minimum of absorbance difference spectrum) values for the compounds below.
Give a bare numeral; the unit nm is implied.

Recorded results for 6 compounds are shown here.
Clc1ccc(C(Cn2ccnc2)OCc2c(Cl)cccc2Cl)c(Cl)c1 (stereo not shown) [Isoconazole nitrate] : 415
CC(C)(C)C(=O)C(Oc1ccc(Cl)cc1)n1ccnc1 (stereo not shown) : 413
Clc1ccc(CCC(Cn2ccnc2)Sc2c(Cl)cccc2Cl)cc1 (stereo not shown) [Butoconazole nitrate] : 413
Clc1ccc(C(Cn2ccnc2)OCc2ccsc2Cl)c(Cl)c1 (stereo not shown) : 414
c1ccc(-c2ccc(C(c3ccccc3)n3ccnc3)cc2)cc1 (stereo not shown) : 413
Clc1ccc(C(Cn2ccnc2)OCc2csc3c(Cl)cccc23)c(Cl)c1 (stereo not shown) [Sertaconazole nitrate] : 416

We now examine a further compound.
// recorded Delta Abs Trough (wavelength minimum of absorbance difference spectrum) for Clc1ccc(C(Cn2ccnc2)OCc2ccc(Sc3ccccc3)cc2)c(Cl)c1 (stereo not shown) [Fenticonazole nitrate] : 415

----------
TEST_TARGET: WT BM3 heme domain (Priestia megaterium, UniProt P14779)
Construct: The BM3 heme domain proteins (WT and the DM A82F/F87V variant) used in this study were expressed as described in our previous studies; made in house; host or cells: E. coli BL21 (DE3)
ASSAY_DETAILS: biochemical
Format: binding, Bacillus megaterium
CONDITION_DESCRIPTION: WT BM3 heme domain; starting wavelength 418 nm
QUANTITY_NAME: Soret Shift (final Soret wavelength at apparent saturation) (nm)
Give a bare numeral; the unit nm is implied.

c1ccc(-c2ccc(C(c3ccccc3)n3ccnc3)cc2)cc1 (stereo not drawn) : 423
Clc1ccc(CCC(Cn2ccnc2)Sc2c(Cl)cccc2Cl)cc1 (stereo not drawn) [Butoconazole nitrate] : 422
Clc1ccc(C(Cn2ccnc2)OCc2ccsc2Cl)c(Cl)c1 (stereo not drawn) : 422
Clc1ccc(C(Cn2ccnc2)OCc2csc3c(Cl)cccc23)c(Cl)c1 (stereo not drawn) [Sertaconazole nitrate] : 419
Clc1ccc(C(Cn2ccnc2)OCc2ccc(Sc3ccccc3)cc2)c(Cl)c1 (stereo not drawn) [Fenticonazole nitrate] : 419

We now examine a further compound.
WT BM3 heme domain (Priestia megaterium, UniProt P14779) assay, compound CC(C)(C)C(=O)C(Oc1ccc(Cl)cc1)n1ccnc1 (stereo not drawn) , recorded Soret Shift (final Soret wavelength at apparent saturation) = 424
